Provenance of the data: the supplement of paper PMC10567573

B1: ZNF649 (parent)
chain: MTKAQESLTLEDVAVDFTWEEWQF

# Variants of: B1
# measurementDescription: protein stability index of a GFP-peptide fusion (GPS, HEK-293T) (PSI 1-6); higher = more stable;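 note: lentivirally expressed fusions sorted by FACS into six bins by GFP to DsRed ratio, PSI derived from sequencing read proportions per bin multiplied by bin number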
# conditionNotes: c terminus: a fixed tail appended
Think of 3 as a floor: if protein stability index stands on it or above, it is T; beneath it, F.

{"columns": ["mutantId", "assignedLabel"],
 "data": [
  ["T2I", "F"],
  ["F17T", "T"],
  ["L8H", "T"],
  ["L10E", "T"],
  ["E21S", "F"],
  ["E21K", "F"],
  ["A4D", "T"],
  ["D12R", "F"],
  ["S7L", "F"],
  ["T18Q", "F"],
  ["L8W", "F"],
  ["E20M", "F"],
  ["L10Y", "T"],
  ["M1G", "T"],
  ["V15L", "F"],
  ["S7C", "F"],
  ["A4P", "T"],
  ["W19A", "T"],
  ["T18C", "F"],
  ["E6C", "F"],
  ["T18W", "F"],
  ["F17E", "T"],
  ["A14M", "F"],
  ["W19M", "T"],
  ["E21L", "F"],
  ["E11H", "F"],
  ["T18I", "F"],
  ["T9D", "T"],
  ["F24H", "T"],
  ["L10T", "T"],
  ["W19S", "T"],
  ["Q23T", "T"],
  ["T18N", "T"],
  ["K3T", "T"],
  ["D16G", "T"],
  ["T9L", "F"],
  ["T18H", "F"],
  ["L10R", "T"],
  ["L10H", "T"]
]}
